# MEASUREMENT_DESCRIPTION: Test Example 2 (absorption properties at time of oral administration to rat)
# Format: in vivo
# TEST_CONTEXT: male, CD (SD), plasma, po, 30 mg/kg, single oral, 30 mg/kg, 8 hr, mean ± SD (n = 4), read-out: Unchanged compound level in blood plasma 8 hr
# Description: A test substance suspended in a 0.5% solution of methylcellulose was orally administered to a male CD (SD) rat (CHARLES RIVER LABORATORIES JAPAN, INC., 7 weeks old when used) in a dose of 30 and 300 mg/kg, and blood was then collected after 0.25, 0.5, 1, 2, 4, 8, and 24 hours. The level of unchanged compound in blood plasma was measured by HPLC (Table 2, Table 3), and pharmacokinetic parameters were calculated and absorption was evaluated (Table 4).
QUANTITY_MEASURED: concentration at 8 hr

# CHEM_SMILES, QUANTITY_MEASURED, RESULT
records = [
    ("O=C(c1cc(Cl)c(O)c(Cl)c1)N1CS(=O)(=O)c2ccccc21", "concentration at 8 hr", "20400 ng/mL"),
]

====

# MEASUREMENT_DESCRIPTION: Test Example 2 (absorption properties at time of oral administration to rat)
# Assay type: in vivo
# TEST_CONTEXT: male, CD (SD), plasma, po, 30 mg/kg, single oral, 30 mg/kg, 24 hr, mean ± SD (n = 4), read-out: Unchanged compound level in blood plasma 24 hr

# COMPOUND, concentration at 24 hr, ng/mL
records = [
    ("O=C(c1cc(Cl)c(O)c(Cl)c1)N1CS(=O)(=O)c2ccccc21 [Example 1]", 1160),
]

====

# MEASUREMENT_DESCRIPTION: Test Example 2 (absorption properties at time of oral administration to rat)
# Format: in vivo
# TEST_CONTEXT: male, CD (SD), plasma, po, 30 mg/kg, single oral, 30 mg/kg, mean ± SD (n = 4), read-out: Cmax

# CHEM_SMILES, Cmax
rows = [
    ("O=C(c1cc(Cl)c(O)c(Cl)c1)N1CS(=O)(=O)c2ccccc21", "59.2 µg/mL"),
]

====

# MEASUREMENT_DESCRIPTION: Test Example 2 (absorption properties at time of oral administration to rat)
# Type: in vivo
# TEST_CONTEXT: male, CD (SD), plasma, po, 300 mg/kg, single oral, 300 mg/kg, 8 hr, mean ± SD (n = 4), read-out: Unchanged compound level in blood plasma 8 hr

# CHEM_SMILES, concentration at 8 hr
measured = [
    ("O=C(c1cc(Cl)c(O)c(Cl)c1)N1CS(=O)(=O)c2ccccc21", "267 µg/mL"),
]

====

# MEASUREMENT_DESCRIPTION: Test Example 2 (absorption properties at time of oral administration to rat)
# Assay type: in vivo
# TEST_CONTEXT: male, CD (SD), plasma, po, 300 mg/kg, single oral, 300 mg/kg, mean ± SD (n = 4), read-out: AUC0-24 hr
# Experimental: A test substance suspended in a 0.5% solution of methylcellulose was orally administered to a male CD (SD) rat (CHARLES RIVER LABORATORIES JAPAN, INC., 7 weeks old when used) in a dose of 30 and 300 mg/kg, and blood was then collected after 0.25, 0.5, 1, 2, 4, 8, and 24 hours. The level of unchanged compound in blood plasma was measured by HPLC (Table 2, Table 3), and pharmacokinetic parameters were calculated and absorption was evaluated (Table 4).

# CHEM_SMILES, DISPLAY_UNIT, AUC(0-t)
measured = [
    ("O=C(c1cc(Cl)c(O)c(Cl)c1)N1CS(=O)(=O)c2ccccc21", "µg·h/mL", 4530),
]
